B1: CPEB3 Ribozyme (parent)
chain: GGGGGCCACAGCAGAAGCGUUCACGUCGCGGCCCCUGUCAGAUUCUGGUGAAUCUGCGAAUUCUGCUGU

- Variants of: B1
- experiment_description: self-cleavage, relative activity (ratio to wild type); higher = more cleavage; co-transcriptional
reported_property: self-cleavage
# respond with the number and nothing more

| mutation_code | self-cleavage |
| --- | --- |
| G19C A42U | 0.173 |
| G17U U55C | 0.227 |
| A10G U46A | 0.91 |

The recorded self-cleavage for G5C A15U is 0.15
